# subjectOfTest: T1, recombinant human domain 1-3His6 of the cation-independent mannose-6-phosphate receptor (human, UniProt P11717 41-467)
# T1 construct: Biotinylated (NHS-PEG4-biotin) for BLI; Glycosylated; also called hDom1-3His6; hCI-M6PRD1-D3
# testMethodNotes: BLI exp 1, dissoc pH 6
Reported kon by item:
Give the value, in units of M⁻¹ s⁻¹, as a plain number.

binder	unitString	kon
anti-CI-M6PR VHH6 (VHH, His6-tagged; made in E. coli) VHH: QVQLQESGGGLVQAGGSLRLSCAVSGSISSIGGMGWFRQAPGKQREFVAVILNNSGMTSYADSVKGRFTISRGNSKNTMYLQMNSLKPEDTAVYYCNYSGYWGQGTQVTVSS	M⁻¹ s⁻¹	1.55e+06

Would you kindly look at the next entry?
Exercise: State its kon for this binder: anti-CI-M6PR VHH4 (VHH, His6-tagged; made in Pichia pastoris) VHH: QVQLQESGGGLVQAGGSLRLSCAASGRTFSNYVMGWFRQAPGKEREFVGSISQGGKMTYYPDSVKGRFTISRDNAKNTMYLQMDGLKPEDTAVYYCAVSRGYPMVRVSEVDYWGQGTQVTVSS
Key: 316000
